Recorded values, source ChEMBL document CHEMBL1811786.

Please respond with reported clearance for every item in the list.
Species on record: Rattus norvegicus
Assay Method Text: Clearance in rat
Format: ADME, organism-based
Settings: in vivo

Some solved entries appear below for comparison.
[[record]]
compound_smiles = "O=C(Nc1cccnc1-c1cccc(Cl)c1)N1CCN2C(=O)N([C@H]3C[C@@H]3c3ccccc3)C(=O)[C@@H]2C1"
measurement = "54 mL/min/kg"

[[record]]
compound_smiles = "CS(=O)(=O)c1cc(Cl)c(NC(=O)N2CCN3C(=O)N([C@H]4C[C@@H]4c4ccccc4)C(=O)[C@@H]3C2)c(Cl)c1"
measurement = "5 mL/min/kg"

[[record]]
compound_smiles = "O=C(Nc1cccc(Cl)c1Cl)N1CCN2C(=O)N([C@H]3C[C@@H]3c3ccccc3)C(=O)[C@@H]2C1"
measurement = "46 mL/min/kg"

[[record]]
compound_smiles = "O=C(Nc1cccnc1-c1ccsc1)N1CCN2C(=O)N([C@H]3C[C@@H]3c3ccccc3)C(=O)[C@@H]2C1"
measurement = "58 mL/min/kg"


# return clearance for each item in the list
1. O=C(Nc1cccnc1-c1ccccc1)N1CCN2C(=O)N([C@H]3C[C@@H]3c3ccccc3)C(=O)[C@@H]2C1
2. CN(C)C(=O)c1cc(Cl)c(NC(=O)N2CCN3C(=O)N([C@H]4C[C@@H]4c4ccccc4)C(=O)[C@@H]3C2)c(Cl)c1
3. O=C(Nc1ccccc1-c1ccccc1)N1CCN2C(=O)N([C@H]3C[C@@H]3c3ccccc3)C(=O)[C@@H]2C1

1. 54 mL/min/kg
2. 41 mL/min/kg
3. 56 mL/min/kg

###

Assay Method Text: Volume of distribution at steady state in dog
Format: ADME, organism-based, Canis lupus familiaris
Settings: in vivo, read-out: Vdss
Measurement Name: Vd (L/kg)
Give bare numbers, in L/kg.

[[record]]
compound_smiles = "O=C(Nc1cccc(Cl)c1Cl)N1CCN2C(=O)N([C@H]3C[C@@H]3c3ccccc3)C(=O)[C@@H]2C1"
units = "L/kg"
measurement = 2.5

[[record]]
compound_smiles = "O=C(Nc1cccnc1-c1ccsc1)N1CCN2C(=O)N([C@H]3C[C@@H]3c3ccccc3)C(=O)[C@@H]2C1"
units = "L/kg"
measurement = 1

[[record]]
compound_smiles = "CS(=O)(=O)c1cc(Cl)c(NC(=O)N2CCN3C(=O)N([C@H]4C[C@@H]4c4ccccc4)C(=O)[C@@H]3C2)c(Cl)c1"
units = "L/kg"
measurement = 0.3

[[record]]
compound_smiles = "C[C@@]12CN(C(=O)Nc3ccnn3-c3ccccc3)CCN1C(=O)N([C@H]1C[C@@H]1c1ccccc1)C2=O"
units = "L/kg"
measurement = 2


Could you now look at the following compound, please?
Which measured Vd value corresponds to `O=C(Nc1ccnn1-c1ccccc1)N1CCN2C(=O)N([C@H]3C[C@@H]3c3ccccc3)C(=O)[C@@H]2C1` ? 1

###

Please respond with reported fraction unbound for every item in the list.
Assay Method Text: Plasma protein binding in human assessed as unbound fraction
Format: ADME, cell-free
Numbers only.

[[record]]
compound_smiles = "O=C(Nc1ccnn1-c1ccccc1)N1CCN2C(=O)N([C@H]3C[C@@H]3c3ccccc3)C(=O)[C@@H]2C1"
measurement_name = "fraction unbound"
measurement = 0.17


Could you now look at the following compound, please?
Which measured fraction unbound value corresponds to `O=C(Nc1ccccc1-c1ccccc1)N1CCN2C(=O)N([C@H]3C[C@@H]3c3ccccc3)C(=O)[C@@H]2C1` ? 0.044

###

Study System: Protein smoothened (Homo sapiens)
Sequence (Q99835 whole entry): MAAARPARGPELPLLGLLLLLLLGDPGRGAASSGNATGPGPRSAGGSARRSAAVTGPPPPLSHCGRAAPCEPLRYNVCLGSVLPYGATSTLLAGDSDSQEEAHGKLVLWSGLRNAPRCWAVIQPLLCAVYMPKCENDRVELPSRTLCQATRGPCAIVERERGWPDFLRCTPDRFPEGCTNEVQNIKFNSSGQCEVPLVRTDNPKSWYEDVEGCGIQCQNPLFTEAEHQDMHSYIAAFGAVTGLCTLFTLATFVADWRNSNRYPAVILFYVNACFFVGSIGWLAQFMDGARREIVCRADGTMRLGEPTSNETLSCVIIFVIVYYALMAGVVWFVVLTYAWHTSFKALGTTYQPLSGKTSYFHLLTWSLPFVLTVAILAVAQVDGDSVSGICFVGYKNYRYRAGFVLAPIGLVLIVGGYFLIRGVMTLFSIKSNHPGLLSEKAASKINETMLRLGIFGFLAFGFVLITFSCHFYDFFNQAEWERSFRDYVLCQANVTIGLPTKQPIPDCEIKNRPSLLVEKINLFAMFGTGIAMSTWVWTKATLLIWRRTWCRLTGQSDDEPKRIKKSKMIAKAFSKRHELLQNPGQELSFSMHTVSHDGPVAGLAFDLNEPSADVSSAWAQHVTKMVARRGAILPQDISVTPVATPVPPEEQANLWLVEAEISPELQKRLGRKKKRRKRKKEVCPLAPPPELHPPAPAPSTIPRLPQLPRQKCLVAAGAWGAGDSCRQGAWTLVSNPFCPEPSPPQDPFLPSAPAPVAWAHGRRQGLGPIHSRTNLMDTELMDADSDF
Assay Method Text: Displacement of BODIPY-cyclopamine from human Smo expressed in HEK293 cells in presence of 2% fetal calf serum
Assay type: cell-based
Measurement Name: log10 IC50 (log10 of the value in nM)
For clarity, the numbers are log10 values of IC50 expressed in nM.

Some solved entries appear below for comparison.
[[record]]
compound_smiles = "O=C(Nc1ccnn1-c1cccc(F)c1)N1CCN2C(=O)N([C@H]3C[C@@H]3c3ccccc3)C(=O)[C@@H]2C1"
measurement = 0.85

[[record]]
compound_smiles = "O=C(Nc1cccc(Cl)c1Cl)N1CCN2C(=O)N([C@@H]3C[C@H]3c3ccccc3)C(=O)[C@@H]2C1"
measurement = 2.83

[[record]]
compound_smiles = "O=C(Nc1ccccc1-c1ccccc1)N1CCN2C(=O)N([C@H]3C[C@@H]3c3ccccc3)C(=O)[C@@H]2C1"
measurement = 1.32

[[record]]
compound_smiles = "O=C(Nc1cccnc1-c1ccsc1)N1CCN2C(=O)N([C@H]3C[C@@H]3c3ccccc3)C(=O)[C@@H]2C1"
measurement = 1.32

[[record]]
compound_smiles = "O=C(Nc1ccnn1-c1ccccc1)N1CCN2C(=O)N([C@H]3C[C@@H]3c3ccccc3)C(=O)[C@@H]2C1"
measurement = 1.18


Could you now look at the following compound, please?
Which measured log10 IC50 value corresponds to `O=C(Nc1cccnc1-c1cccc(Cl)c1)N1CCN2C(=O)N([C@H]3C[C@@H]3c3ccccc3)C(=O)[C@@H]2C1` ? 0.60

###

Assay Method Text: Volume of distribution at steady state in rat
Type: ADME, organism-based
Settings: in vivo, read-out: Vdss
Measurement Name: Vd (L/kg)
One number for each entry, in L/kg.

[[record]]
compound_smiles = "CN(C)C(=O)c1cc(Cl)c(NC(=O)N2CCN3C(=O)N([C@H]4C[C@@H]4c4ccccc4)C(=O)[C@@H]3C2)c(Cl)c1"
measurement_name = "Vd"
units = "L/kg"
measurement = 2.1

[[record]]
compound_smiles = "C[C@@]12CN(C(=O)Nc3ccnn3-c3ccccc3)CCN1C(=O)N([C@H]1C[C@@H]1c1ccccc1)C2=O"
measurement_name = "Vd"
units = "L/kg"
measurement = 2.9

[[record]]
compound_smiles = "O=C(Nc1cccnc1-c1ccsc1)N1CCN2C(=O)N([C@H]3C[C@@H]3c3ccccc3)C(=O)[C@@H]2C1"
measurement_name = "Vd"
units = "L/kg"
measurement = 10


# return Vd for each item in the list
1. O=C(Nc1cccnc1-c1ccccc1)N1CCN2C(=O)N([C@H]3C[C@@H]3c3ccccc3)C(=O)[C@@H]2C1
2. N#Cc1cccc(-c2ncccc2NC(=O)N2CCN3C(=O)N([C@H]4C[C@@H]4c4ccccc4)C(=O)[C@@H]3C2)c1
3. O=C(Nc1ccnn1-c1ccccc1)N1CCN2C(=O)N([C@H]3C[C@@H]3c3ccccc3)C(=O)[C@@H]2C1
4. O=C(Nc1cccc(Cl)c1Cl)N1CCN2C(=O)N([C@H]3C[C@@H]3c3ccccc3)C(=O)[C@@H]2C1

[6.7, 6, 2.9, 8]

###

Assay Method Text: Half life in rat
Type: ADME, organism-based
Settings: in vivo
Please respond with reported log10 of half-life for every item in the list.
For clarity, the numbers are log10 values of half-life expressed in h.

[[record]]
compound_smiles = "O=C(Nc1cccnc1-c1ccsc1)N1CCN2C(=O)N([C@H]3C[C@@H]3c3ccccc3)C(=O)[C@@H]2C1"
measurement_name = "log10 of half-life"
measurement = 1.00

[[record]]
compound_smiles = "O=C(Nc1cccnc1-c1cccc(Cl)c1)N1CCN2C(=O)N([C@H]3C[C@@H]3c3ccccc3)C(=O)[C@@H]2C1"
measurement_name = "log10 of half-life"
measurement = 0.11

[[record]]
compound_smiles = "O=C(Nc1cccc(Cl)c1Cl)N1CCN2C(=O)N([C@H]3C[C@@H]3c3ccccc3)C(=O)[C@@H]2C1"
measurement_name = "log10 of half-life"
measurement = 0.34

[[record]]
compound_smiles = "CN(C)C(=O)c1cc(Cl)c(NC(=O)N2CCN3C(=O)N([C@H]4C[C@@H]4c4ccccc4)C(=O)[C@@H]3C2)c(Cl)c1"
measurement_name = "log10 of half-life"
measurement = -0.22

[[record]]
compound_smiles = "O=C(Nc1cccnc1-c1ccccc1)N1CCN2C(=O)N([C@H]3C[C@@H]3c3ccccc3)C(=O)[C@@H]2C1"
measurement_name = "log10 of half-life"
measurement = 0.69

[[record]]
compound_smiles = "N#Cc1cc(Cl)c(NC(=O)N2CCN3C(=O)N([C@H]4C[C@@H]4c4ccccc4)C(=O)[C@@H]3C2)c(Cl)c1"
measurement_name = "log10 of half-life"
measurement = 0.73


Could you now look at the following compound, please?
Which measured log10 of half-life value corresponds to `N#Cc1cccc(-c2ncccc2NC(=O)N2CCN3C(=O)N([C@H]4C[C@@H]4c4ccccc4)C(=O)[C@@H]3C2)c1` ? 0.58

###

Assay Method Text: AUC in mouse at 80 mg/kg, po
Format: ADME, organism-based
Parameters: dose 80 mg/kg, route oral
Settings: plasma
Measurement Name: AUC (µM·h)
Give bare numbers, in µM·h.

Which measured AUC value corresponds to `O=C(Nc1ccnn1-c1ccccc1)N1CCN2C(=O)N([C@H]3C[C@@H]3c3ccccc3)C(=O)[C@@H]2C1` ? 15

###

Study System: CYP3A4 (Homo sapiens, UniProt P08684)
Sequence (P08684 whole entry): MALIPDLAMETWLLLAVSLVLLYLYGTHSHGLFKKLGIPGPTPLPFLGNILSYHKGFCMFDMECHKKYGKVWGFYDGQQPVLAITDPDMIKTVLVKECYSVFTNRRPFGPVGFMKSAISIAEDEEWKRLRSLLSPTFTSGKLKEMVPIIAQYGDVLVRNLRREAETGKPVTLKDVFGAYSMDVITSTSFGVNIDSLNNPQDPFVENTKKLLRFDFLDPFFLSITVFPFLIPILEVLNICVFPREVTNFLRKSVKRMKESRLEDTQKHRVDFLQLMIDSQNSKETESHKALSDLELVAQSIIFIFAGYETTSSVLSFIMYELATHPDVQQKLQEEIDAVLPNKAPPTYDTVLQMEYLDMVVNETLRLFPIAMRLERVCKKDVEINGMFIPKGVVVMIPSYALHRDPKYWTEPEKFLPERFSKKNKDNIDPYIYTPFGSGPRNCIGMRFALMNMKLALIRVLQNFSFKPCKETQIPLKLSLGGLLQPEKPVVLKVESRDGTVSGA
Assay Method Text: Inhibition of CYP3A4 at 10 uM
Type: ADME
Measurement Name: inhibition at 10 µM (%)
Give bare numbers, in %.

Write down the reported inhibition at 10 µM of `O=C(Nc1ccccc1-c1ccccc1)N1CCN2C(=O)N([C@H]3C[C@@H]3c3ccccc3)C(=O)[C@@H]2C1` , test system: CYP3A4 (Homo sapiens, UniProt P08684). 50
